CONDITION PARAMETERS: in isobutanol, 278.15 K
OBSERVATION TYPE: solubility (mole fraction)

**Query** Name the reported solubility (mole fraction) value associated with the compound `NC(=O)C[C@H](N)C(=O)O.O`
**Result** 1.11e-05

---

CONDITION PARAMETERS: in water, 288.15 K
OBSERVATION TYPE: solubility (mole fraction)
Give bare numbers.

**Query** Field request: solubility (mole fraction) | item: `NC(=O)C[C@H](N)C(=O)O.O`
**Result** 0.00227

---

CONDITION PARAMETERS: in isopropanol, 288.15 K
OBSERVATION TYPE: solubility (mole fraction)
Answers are plain numbers.

**Query** Which solubility (mole fraction) value belongs to `NC(=O)C[C@H](N)C(=O)O.O` ?
**Result** 1.65e-05

---

CONDITION PARAMETERS: in n-propyl acetate, 323.15 K
OBSERVATION TYPE: solubility (mole fraction)
Give bare numbers.

**Query** Given the entry `NC(=O)C[C@H](N)C(=O)O.O` , report its measured solubility (mole fraction).
**Result** 0.000154

---

CONDITION PARAMETERS: in n-propyl acetate, 278.15 K
OBSERVATION TYPE: solubility (mole fraction)
Answers are plain numbers.

**Query** Given the entry `NC(=O)C[C@H](N)C(=O)O.O` , report its measured solubility (mole fraction).
**Result** 1.63e-05

---

CONDITION PARAMETERS: in n-butanol, 308.15 K
OBSERVATION TYPE: solubility (mole fraction)
Give bare numbers.

**Query** Query (molecule): `NC(=O)C[C@H](N)C(=O)O.O` ; field requested: solubility (mole fraction)
**Result** 5.38e-05

---

CONDITION PARAMETERS: in ethyl acetate, 323.15 K
OBSERVATION TYPE: solubility (mole fraction)
Give bare numbers.

**Query** Which solubility (mole fraction) reading was recorded for the molecule `NC(=O)C[C@H](N)C(=O)O.O` ?
**Result** 0.000129

---

CONDITION PARAMETERS: in isobutanol, 313.15 K
OBSERVATION TYPE: solubility (mole fraction)
Give bare numbers.

**Query** Which value of solubility (mole fraction) has been reported for `NC(=O)C[C@H](N)C(=O)O.O` in the records?
**Result** 6.98e-05

---

CONDITION PARAMETERS: in ethanol, 288.15 K
OBSERVATION TYPE: solubility (mole fraction)
Numbers only.

**Query** Would you mind telling me what solubility (mole fraction) value was observed for `NC(=O)C[C@H](N)C(=O)O.O` ?
**Result** 2.36e-05

---

CONDITION PARAMETERS: in n-propyl acetate, 298.15 K
OBSERVATION TYPE: solubility (mole fraction)
Numbers only.

**Query** Given `NC(=O)C[C@H](N)C(=O)O.O` , state its recorded solubility (mole fraction).
**Result** 4.76e-05

---

CONDITION PARAMETERS: in n-propanol, 308.15 K
OBSERVATION TYPE: solubility (mole fraction)
One number for each entry.

**Query** I am curious: what solubility (mole fraction) value has been reported for `NC(=O)C[C@H](N)C(=O)O.O` ?
**Result** 5.68e-05

---

CONDITION PARAMETERS: in n-butanol, 283.15 K
OBSERVATION TYPE: solubility (mole fraction)
One number for each entry.

**Query** Bench note: what solubility (mole fraction) did `NC(=O)C[C@H](N)C(=O)O.O` show?
**Result** 1.43e-05

From: BigSolDB 2.1
